inhibition by entry:
system: Platelet-derived growth factor receptor alpha (Homo sapiens), P16234 [D842V]; conditions: at 0.1 µM
Sequence (P16234 whole entry D842V): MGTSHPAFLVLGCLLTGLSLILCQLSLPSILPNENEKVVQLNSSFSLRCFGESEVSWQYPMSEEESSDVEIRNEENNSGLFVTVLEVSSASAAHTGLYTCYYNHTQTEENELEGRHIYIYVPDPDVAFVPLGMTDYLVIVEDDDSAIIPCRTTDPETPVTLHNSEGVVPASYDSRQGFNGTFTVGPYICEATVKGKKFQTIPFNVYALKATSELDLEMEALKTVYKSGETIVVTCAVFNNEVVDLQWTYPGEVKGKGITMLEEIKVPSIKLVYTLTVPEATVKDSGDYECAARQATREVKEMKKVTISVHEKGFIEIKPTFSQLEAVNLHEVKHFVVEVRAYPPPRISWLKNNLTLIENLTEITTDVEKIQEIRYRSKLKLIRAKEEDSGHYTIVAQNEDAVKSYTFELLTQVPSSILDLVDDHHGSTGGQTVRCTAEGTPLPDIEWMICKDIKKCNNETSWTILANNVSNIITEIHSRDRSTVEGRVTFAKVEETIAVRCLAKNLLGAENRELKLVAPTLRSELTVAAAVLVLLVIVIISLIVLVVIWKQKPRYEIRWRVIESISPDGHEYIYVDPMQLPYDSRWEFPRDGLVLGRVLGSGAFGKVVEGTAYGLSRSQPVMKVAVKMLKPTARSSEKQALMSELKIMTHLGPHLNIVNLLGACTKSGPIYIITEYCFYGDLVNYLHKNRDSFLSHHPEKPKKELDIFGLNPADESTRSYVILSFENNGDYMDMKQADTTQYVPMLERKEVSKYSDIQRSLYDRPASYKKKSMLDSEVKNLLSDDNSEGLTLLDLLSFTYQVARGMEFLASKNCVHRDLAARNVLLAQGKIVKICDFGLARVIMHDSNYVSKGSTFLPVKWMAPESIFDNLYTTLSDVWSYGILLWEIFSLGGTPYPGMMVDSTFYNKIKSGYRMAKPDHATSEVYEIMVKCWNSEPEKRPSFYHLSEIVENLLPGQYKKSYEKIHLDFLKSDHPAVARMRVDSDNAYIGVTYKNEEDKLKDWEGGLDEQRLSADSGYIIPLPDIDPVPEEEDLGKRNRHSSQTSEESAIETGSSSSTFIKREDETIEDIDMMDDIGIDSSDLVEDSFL

{"columns": ["chem smiles", "endpoint result"],
 "data": [
  ["COc1cc(C)c(N(C)C(=O)CN(C)C)cc1Nc1nc(Nc2cccc(F)c2C(N)=O)c2cc[nH]c2n1", "0.9%"]
]}

Q: Query: inhibition; subject: NC(=O)c1ccc(Oc2nccc(-c3c(-c4ccc(F)cc4)ncn3C3CCNCC3)n2)cc1
Result: 2.12%

Q: Please do the same for NS(=O)(=O)c1ccc(N/N=C2\C(=O)Nc3ccc(-c4cnco4)cc32)cc1 as well.
Result: 6.86%

Q: Please do the same for c1ccc(-c2n[nH]cc2-c2ccnc(-c3ccc(OCCN4CCOCC4)cc3)c2)nc1 as well.
Result: 18.6%

Q: Please do the same for c1ccc(Oc2ccc(Nc3ncc(-c4ccccc4)o3)cc2)cc1 as well.
Result: 4.48%

Q: Please do the same for CCc1cccc(CC)c1/C=C/c1cncc(C(=O)NC)c1 as well.
Result: 0.6%

* * *

molecular target: Cyclin-dependent kinase 5 (Homo sapiens); details: at 1 µM;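 further: mean value of inhibition, with the enzyme tested as CDK5/p35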
inhibition by entry:
Only the number, expressed in %, is required.

Q: Query: inhibition; subject: COc1cc(N2CCN(C(C)C)CC2)ccc1Nc1nc(Nc2ccc(F)cc2C(=O)NC[C@@H](O)CO)c2cc[nH]c2n1
Result: -4.32

Q: Please do the same for O=C(Nc1n[nH]c2cc(-c3ccccc3)ccc12)C1CC1 as well.
Result: 5.17

Q: Please do the same for O=C(NCC1CC1)c1ccc(-c2cccc(C(=O)NC3CC3)c2)cc1 as well.
Result: 0.99

Q: Please do the same for COc1cc(Nc2ncc3c(C)nc(-c4cccc(C(F)(F)F)c4)n3n2)cc(OC)c1OC as well.
Result: 9.6

Q: Please do the same for COc1ccc2cc(-c3c(-c4ccncc4)nc(-c4ccc([S+](C)[O-])cc4C)n3C)ccc2c1 (stereo not given) as well.
Result: 2.04

Q: Please do the same for COc1cc2ncn(-c3cc(OCCc4ccccc4)c(C(N)=O)s3)c2cc1OC as well.
Result: 1.45

Q: Please do the same for Fc1ccc(-c2nc3n(c2-c2ccncc2)CCS3)cc1 as well.
Result: -2.61

Q: Please do the same for COc1cccc(/C=N/Nc2ncnc3c2cnn3-c2cccc(OC)c2)c1 as well.
Result: 3.98

* * *

biological target: Fibroblast growth factor receptor 3 (Homo sapiens) (UniProt P22607); details: at 0.1 µM;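 further: each value is a mean percent inhibition of FGFR3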
Sequence (P22607 23-806 limits assumed): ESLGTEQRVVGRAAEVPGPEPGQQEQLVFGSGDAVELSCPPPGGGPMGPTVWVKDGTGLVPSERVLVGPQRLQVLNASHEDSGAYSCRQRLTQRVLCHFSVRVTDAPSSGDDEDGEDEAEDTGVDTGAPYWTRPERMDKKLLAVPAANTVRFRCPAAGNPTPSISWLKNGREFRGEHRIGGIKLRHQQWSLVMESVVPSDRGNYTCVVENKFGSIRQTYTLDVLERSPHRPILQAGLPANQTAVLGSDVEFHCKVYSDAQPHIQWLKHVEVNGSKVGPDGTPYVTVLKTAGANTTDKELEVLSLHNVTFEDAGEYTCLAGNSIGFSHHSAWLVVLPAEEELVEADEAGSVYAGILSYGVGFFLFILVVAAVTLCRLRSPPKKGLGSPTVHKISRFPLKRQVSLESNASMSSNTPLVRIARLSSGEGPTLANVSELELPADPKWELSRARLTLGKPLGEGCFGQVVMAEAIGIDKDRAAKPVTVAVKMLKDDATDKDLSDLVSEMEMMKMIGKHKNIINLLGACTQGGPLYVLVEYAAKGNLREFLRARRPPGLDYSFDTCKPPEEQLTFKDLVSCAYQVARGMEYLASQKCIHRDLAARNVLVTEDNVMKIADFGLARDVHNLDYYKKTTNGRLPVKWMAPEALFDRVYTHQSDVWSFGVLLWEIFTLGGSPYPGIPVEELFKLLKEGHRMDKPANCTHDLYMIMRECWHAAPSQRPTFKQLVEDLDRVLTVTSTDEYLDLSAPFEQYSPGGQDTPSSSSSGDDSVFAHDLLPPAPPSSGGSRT
measure name: inhibition (%)
Only the number, expressed in %, is required.

Q: Query: inhibition; subject: COc1ccc2ncn(-c3cc(O[C@H](C)c4ccccc4Cl)c(C(N)=O)s3)c2c1
Result: 1.57

Q: Please do the same for COc1cccc(/C=N/Nc2ncnc3c2cnn3-c2cccc(OC)c2)c1 as well.
Result: 4.59

Q: Please do the same for FC(F)(F)c1cccc(Nc2nccc(-c3cnn4nc(-c5ccccc5)ccc34)n2)c1 as well.
Result: 1.31

Q: Please do the same for c1ccc(-c2n[nH]cc2-c2ccnc(-c3ccc(OCCN4CCOCC4)cc3)c2)nc1 as well.
Result: 3.61

Q: Please do the same for CNC(=O)c1cncc(/C=C/c2c(C)cccc2C)c1 as well.
Result: -2.67

Q: Please do the same for Nc1nccc(-c2c(-c3ccc(F)cc3)ncn2C2CCC(O)CC2)n1 (stereo not given) as well.
Result: -0.35

* * *

molecular target: cGMP-dependent protein kinase 2 (Homo sapiens) (UniProt Q13237); conditions: at 1 µM;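 further: mean inhibition of PRKG2 from the GSK PKIS screen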
Sequence (Q13237 whole entry): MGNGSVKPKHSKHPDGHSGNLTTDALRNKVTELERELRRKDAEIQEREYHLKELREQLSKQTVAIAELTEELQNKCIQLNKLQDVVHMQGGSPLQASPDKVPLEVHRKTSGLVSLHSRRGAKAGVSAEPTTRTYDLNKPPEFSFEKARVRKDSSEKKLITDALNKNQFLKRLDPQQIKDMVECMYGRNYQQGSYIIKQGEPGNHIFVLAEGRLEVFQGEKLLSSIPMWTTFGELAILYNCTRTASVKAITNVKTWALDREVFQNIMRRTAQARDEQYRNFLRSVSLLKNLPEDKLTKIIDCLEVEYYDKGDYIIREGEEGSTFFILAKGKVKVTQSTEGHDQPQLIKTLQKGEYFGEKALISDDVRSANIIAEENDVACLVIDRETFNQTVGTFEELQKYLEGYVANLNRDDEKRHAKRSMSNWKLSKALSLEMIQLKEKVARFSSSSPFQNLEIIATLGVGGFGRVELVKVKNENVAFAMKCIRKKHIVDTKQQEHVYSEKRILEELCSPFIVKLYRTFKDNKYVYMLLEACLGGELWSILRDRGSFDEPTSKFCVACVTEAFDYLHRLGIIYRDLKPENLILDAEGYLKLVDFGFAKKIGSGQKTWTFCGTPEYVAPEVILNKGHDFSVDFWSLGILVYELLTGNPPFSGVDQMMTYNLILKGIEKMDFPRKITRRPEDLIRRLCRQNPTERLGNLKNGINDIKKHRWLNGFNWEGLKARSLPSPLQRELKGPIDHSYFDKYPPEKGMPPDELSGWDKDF
inhibition by entry:
Only the number, expressed in %, is required.

Worked cases, answers included:
{"columns": ["chem smiles", "measure name", "unit annotation", "endpoint result"],
 "data": [
  ["COc1ccc2ncn(-c3cc(O[C@H](C)c4ccccc4Cl)c(C(N)=O)s3)c2c1", "inhibition", "%", 4.43],
  ["CN(C)c1ccc2c(c1)/C(=C/Nc1ccc(S(N)(=O)=O)cc1)C(=O)N2", "inhibition", "%", 8.65],
  ["CCc1ccc(Oc2nccc(-c3c(-c4ccc(F)cc4)ncn3C3CCNCC3)n2)cc1", "inhibition", "%", 8.46],
  ["c1ccc(Oc2ccc(Nc3ncc(-c4ccccc4)o3)cc2)cc1", "inhibition", "%", 3.1],
  ["CCS(=O)(=O)c1ccc(OC)c(Nc2ncc(-c3cccc(-c4ccccc4F)c3)o2)c1", "inhibition", "%", 2.1]
]}

Q: Query: inhibition; subject: c1ccc(-c2n[nH]cc2-c2ccnc(-c3ccc(OCCN4CCOCC4)cc3)c2)nc1
Result: 3.32

Q: Please do the same for CCS(=O)(=O)c1ccc(OC)c(Nc2ncc(-c3ccccc3Cl)o2)c1 as well.
Result: 2.95

* * *

target: Ephrin type-A receptor 3 (Homo sapiens) (UniProt P29320); details: at 0.1 µM
Sequence (P29320 whole entry): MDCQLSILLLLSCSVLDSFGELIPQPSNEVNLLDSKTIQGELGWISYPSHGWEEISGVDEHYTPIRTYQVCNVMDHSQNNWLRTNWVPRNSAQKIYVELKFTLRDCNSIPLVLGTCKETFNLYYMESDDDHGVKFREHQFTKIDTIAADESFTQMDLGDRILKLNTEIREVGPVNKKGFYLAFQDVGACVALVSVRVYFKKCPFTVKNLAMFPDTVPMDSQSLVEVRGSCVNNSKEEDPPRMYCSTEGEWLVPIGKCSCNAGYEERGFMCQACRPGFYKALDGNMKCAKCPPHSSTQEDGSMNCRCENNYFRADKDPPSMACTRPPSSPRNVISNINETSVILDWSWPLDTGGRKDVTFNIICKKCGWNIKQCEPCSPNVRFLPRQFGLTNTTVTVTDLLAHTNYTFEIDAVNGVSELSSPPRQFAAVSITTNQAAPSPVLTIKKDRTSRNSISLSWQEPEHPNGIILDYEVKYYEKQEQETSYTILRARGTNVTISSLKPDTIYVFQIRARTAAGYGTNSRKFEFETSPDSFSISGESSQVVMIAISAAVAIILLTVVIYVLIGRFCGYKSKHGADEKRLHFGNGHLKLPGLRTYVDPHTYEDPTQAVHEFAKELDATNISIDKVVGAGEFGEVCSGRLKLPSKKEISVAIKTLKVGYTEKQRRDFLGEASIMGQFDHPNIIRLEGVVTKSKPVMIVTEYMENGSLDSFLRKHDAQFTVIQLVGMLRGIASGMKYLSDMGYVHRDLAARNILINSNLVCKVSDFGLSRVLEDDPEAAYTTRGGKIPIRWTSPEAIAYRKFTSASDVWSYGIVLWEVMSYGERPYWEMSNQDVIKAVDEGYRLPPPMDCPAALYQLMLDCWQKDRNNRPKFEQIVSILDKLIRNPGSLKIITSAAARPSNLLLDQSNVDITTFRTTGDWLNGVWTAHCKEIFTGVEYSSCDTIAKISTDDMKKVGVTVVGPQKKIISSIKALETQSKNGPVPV
inhibition by entry:
Only the number, expressed in %, is required.

{"columns": ["compound", "measure name", "endpoint result"],
 "data": [
  ["COc1ccc2cc(-c3c(-c4ccncc4)nc(-c4ccc([S+](C)[O-])cc4C)n3C)ccc2c1 (stereo not given)", "inhibition", -1.34],
  ["COc1ccc(-c2ccc3c(NC(=O)C4CC4)n[nH]c3n2)cc1", "inhibition", 2.4],
  ["c1ccc(-c2n[nH]cc2-c2ccnc(-c3ccc(OCCN4CCOCC4)cc3)c2)nc1", "inhibition", -1.39],
  ["C[C@@H](Oc1cc(-n2cnc3ccc(OC4CCN(C)CC4)cc32)sc1C(N)=O)c1ccccc1Cl", "inhibition", -0.17]
]}

Attention now turns to another entry.
Q: Param readout = inhibition; param system = Ephrin type-A receptor 3 (Homo sapiens) (UniProt P29320); param query = CCc1ccc(Oc2nccc(-c3c(-c4ccc(F)cc4)ncn3C3CCNCC3)n2)cc1 ; response: value;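 further: values are mean inhibition of EPHA3, from the GSK PKIS dataset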
Result: 4.68

* * *

molecular target: Tyrosine-protein kinase ABL2 (Homo sapiens) (UniProt P42684); settings: at 1 µM
Sequence (P42684 whole entry): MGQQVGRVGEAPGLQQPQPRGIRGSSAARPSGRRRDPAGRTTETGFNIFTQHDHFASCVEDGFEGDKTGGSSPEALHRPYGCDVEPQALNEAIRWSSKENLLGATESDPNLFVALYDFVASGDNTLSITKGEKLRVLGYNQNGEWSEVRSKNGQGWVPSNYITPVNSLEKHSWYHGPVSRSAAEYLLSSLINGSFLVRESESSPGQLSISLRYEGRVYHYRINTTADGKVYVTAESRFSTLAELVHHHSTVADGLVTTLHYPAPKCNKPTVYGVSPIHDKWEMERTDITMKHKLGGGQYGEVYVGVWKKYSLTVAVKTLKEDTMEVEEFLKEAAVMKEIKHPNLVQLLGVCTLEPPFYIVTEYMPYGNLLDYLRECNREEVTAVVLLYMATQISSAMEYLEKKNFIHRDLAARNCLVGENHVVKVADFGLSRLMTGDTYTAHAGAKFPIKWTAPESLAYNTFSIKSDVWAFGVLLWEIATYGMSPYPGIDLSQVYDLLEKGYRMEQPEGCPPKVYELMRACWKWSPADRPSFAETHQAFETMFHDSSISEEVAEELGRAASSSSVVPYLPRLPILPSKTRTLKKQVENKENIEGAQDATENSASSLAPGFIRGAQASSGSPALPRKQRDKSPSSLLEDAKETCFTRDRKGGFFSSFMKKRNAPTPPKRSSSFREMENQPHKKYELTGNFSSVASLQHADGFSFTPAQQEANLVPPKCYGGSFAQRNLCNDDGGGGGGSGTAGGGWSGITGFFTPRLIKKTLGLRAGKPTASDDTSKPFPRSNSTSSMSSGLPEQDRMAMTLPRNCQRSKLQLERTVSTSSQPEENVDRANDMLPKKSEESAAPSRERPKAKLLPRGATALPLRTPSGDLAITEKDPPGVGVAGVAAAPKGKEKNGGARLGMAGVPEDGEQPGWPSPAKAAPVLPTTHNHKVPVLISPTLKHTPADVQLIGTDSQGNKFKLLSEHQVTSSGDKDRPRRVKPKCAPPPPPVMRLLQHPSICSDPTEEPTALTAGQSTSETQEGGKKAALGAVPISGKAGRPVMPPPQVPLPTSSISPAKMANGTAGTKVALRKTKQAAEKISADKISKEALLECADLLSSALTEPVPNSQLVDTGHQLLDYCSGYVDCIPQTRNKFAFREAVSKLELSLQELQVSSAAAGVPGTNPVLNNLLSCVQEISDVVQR
Description: GSK_PKIS: ARG mean inhibition at 1 uM [Nanosyn]
Mark Yes for reported inhibition of 20% or greater; mark No for anything smaller.

Would you please look over these solved cases?
{"columns": ["compound", "qualitative label"],
 "data": [
  ["COc1cccc(-n2cnc3c(N/N=C/c4ccncc4)ncnc32)c1", "Yes"],
  ["NC(=O)c1cc(-c2ccncc2)cc(-c2ccccc2)c1N", "Yes"],
  ["C/C(Nc1ccc(S(N)(=O)=O)cc1)=C1/C(=O)Nc2ccccc21", "No"],
  ["Nc1nccc(-c2c(-c3ccc(F)cc3)ncn2C2CCC(O)CC2)n1 (stereo unspecified)", "Yes"],
  ["COc1cccc(/C=N/Nc2ncnc3c2cnn3-c2cccc(OC)c2)c1", "No"]
]}

Q: State whether the measured inhibition reaches 20%, counting equality as reaching it, for COc1cc(Nc2ncc3c(C)nc(-c4cccc(C(F)(F)F)c4)n3n2)cc(OC)c1OC
Result: No

Q: Please do the same for CCC(=O)Nc1ccc(C)c(-c2ccc(C(=O)NCC3CC3)cc2)c1 as well.
Result: No

Q: Please do the same for O=C(Nc1n[nH]c2cc(-c3cc(F)ccc3F)ccc12)C1CC1 as well.
Result: No

Q: Please do the same for CCc1cccc(CC)c1/C=C/c1cncc(C(=O)NC)c1 as well.
Result: No

Q: Please do the same for COc1ccc(C2=C(N3CCc4ccccc43)C(=O)NC2=O)cc1 as well.
Result: No

Q: Please do the same for Cc1ccc(C(=O)NC(C)C)cc1-c1ccc(C(=O)NCC2CC2)cc1 as well.
Result: No

* * *

inhibition by entry:
Molecular target: Ephrin type-B receptor 4 (Homo sapiens)
Sequence (whole entry): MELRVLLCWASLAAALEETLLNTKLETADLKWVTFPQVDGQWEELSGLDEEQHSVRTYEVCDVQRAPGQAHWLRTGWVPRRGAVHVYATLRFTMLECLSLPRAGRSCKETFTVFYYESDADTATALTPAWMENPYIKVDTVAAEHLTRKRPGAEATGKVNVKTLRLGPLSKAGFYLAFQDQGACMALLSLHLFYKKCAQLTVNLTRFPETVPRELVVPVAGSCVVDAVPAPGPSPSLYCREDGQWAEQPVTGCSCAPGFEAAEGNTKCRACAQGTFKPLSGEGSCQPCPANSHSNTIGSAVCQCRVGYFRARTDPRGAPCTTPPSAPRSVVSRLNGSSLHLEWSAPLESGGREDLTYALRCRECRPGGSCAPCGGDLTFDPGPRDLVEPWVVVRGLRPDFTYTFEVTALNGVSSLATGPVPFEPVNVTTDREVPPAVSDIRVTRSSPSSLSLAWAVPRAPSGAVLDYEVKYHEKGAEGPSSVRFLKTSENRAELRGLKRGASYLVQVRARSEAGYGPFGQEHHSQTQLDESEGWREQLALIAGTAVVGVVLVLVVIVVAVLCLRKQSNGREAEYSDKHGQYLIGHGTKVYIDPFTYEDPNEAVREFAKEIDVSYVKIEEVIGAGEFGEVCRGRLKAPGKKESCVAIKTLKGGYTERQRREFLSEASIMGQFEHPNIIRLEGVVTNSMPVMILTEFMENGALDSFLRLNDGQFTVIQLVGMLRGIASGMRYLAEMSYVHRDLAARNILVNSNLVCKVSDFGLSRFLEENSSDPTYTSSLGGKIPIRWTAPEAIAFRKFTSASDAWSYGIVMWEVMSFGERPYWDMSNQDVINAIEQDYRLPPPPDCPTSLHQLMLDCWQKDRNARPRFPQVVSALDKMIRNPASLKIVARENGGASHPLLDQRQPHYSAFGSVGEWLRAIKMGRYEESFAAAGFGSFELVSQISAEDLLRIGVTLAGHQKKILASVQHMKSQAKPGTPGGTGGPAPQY
Details: at 1 µM
Only the number, expressed in %, is required.

Q: Param readout = inhibition; param system = Ephrin type-B receptor 4 (Homo sapiens); param query = CCC(=O)Nc1ccc(C)c(-c2ccc(C(=O)NCC3CC3)cc2)c1 ; response: value;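 further: reported value is the mean percent inhibition of EPHB4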
Result: 1.51

Q: Please do the same for COc1cc(C)c(N(C)C(=O)CN(C)C)cc1Nc1nc(Nc2cccc(F)c2C(N)=O)c2cc[nH]c2n1 as well.
Result: -3.91

Q: Please do the same for FC(F)(F)c1cccc(Nc2nccc(-c3cnn4nc(-c5ccccc5)ccc34)n2)c1 as well.
Result: 0.74

Q: Please do the same for Fc1ccc(-c2ncn(C3CCNCC3)c2-c2ccnc(Oc3ccc(Oc4ccccc4)cc3)n2)cc1 as well.
Result: 2.19

Q: Please do the same for COc1cc(N2CCN(C(C)C)CC2)ccc1Nc1nc(Nc2ccc(F)cc2C(=O)NC[C@@H](O)CO)c2cc[nH]c2n1 as well.
Result: -3.91

Q: Please do the same for COc1ccc2cc(-c3c(-c4ccncc4)nc(-c4ccc(S(C)(=O)=O)cc4C)n3C)ccc2c1 as well.
Result: 14.2

Q: Please do the same for Fc1ccc(-c2ncn(C3CCNCC3)c2-c2ccnc(Oc3ccc4c(c3)OCO4)n2)cc1 as well.
Result: 3.9

Q: Please do the same for O=C(NCC1CC1)c1ccc(-c2cccc(C(=O)NC3CC3)c2)cc1 as well.
Result: 1.03

Q: Please do the same for Cc1ccc(C(=O)NC(C)C)cc1-c1ccc(C(=O)NCC2CC2)cc1 as well.
Result: -2.91

Value source: ChEMBL document CHEMBL1961873
